Target: Neuronal acetylcholine receptor subunit alpha-3 (Rattus norvegicus)
Sequence (P04757 whole entry): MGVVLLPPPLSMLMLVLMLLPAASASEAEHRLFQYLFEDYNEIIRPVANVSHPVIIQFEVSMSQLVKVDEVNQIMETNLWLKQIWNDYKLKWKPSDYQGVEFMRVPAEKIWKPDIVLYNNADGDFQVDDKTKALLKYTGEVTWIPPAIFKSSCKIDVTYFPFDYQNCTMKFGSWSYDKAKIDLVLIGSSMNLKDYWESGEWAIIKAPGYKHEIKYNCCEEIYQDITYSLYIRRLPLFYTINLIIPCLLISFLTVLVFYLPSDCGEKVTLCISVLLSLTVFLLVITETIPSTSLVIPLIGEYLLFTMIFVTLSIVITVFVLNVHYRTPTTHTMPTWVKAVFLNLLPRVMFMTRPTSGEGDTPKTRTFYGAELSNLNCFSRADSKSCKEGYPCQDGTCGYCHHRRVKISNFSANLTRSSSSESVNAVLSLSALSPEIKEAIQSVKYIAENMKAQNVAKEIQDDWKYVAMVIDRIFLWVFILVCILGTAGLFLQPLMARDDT
parameter: Ki

Any idea what Ki came out for C[N+](C)(C)CCO [2-hydroxy-N,N,N-trimethylethanaminium] on Neuronal acetylcholine receptor subunit alpha-3 (Rattus norvegicus)?
> 10 µM

---

pKi: −log10 of the molar value.
Entries with reported pKi on Neuronal acetylcholine receptor subunit alpha-2 (Rattus norvegicus, UniProt P12389)
Sequence (P12389 whole entry): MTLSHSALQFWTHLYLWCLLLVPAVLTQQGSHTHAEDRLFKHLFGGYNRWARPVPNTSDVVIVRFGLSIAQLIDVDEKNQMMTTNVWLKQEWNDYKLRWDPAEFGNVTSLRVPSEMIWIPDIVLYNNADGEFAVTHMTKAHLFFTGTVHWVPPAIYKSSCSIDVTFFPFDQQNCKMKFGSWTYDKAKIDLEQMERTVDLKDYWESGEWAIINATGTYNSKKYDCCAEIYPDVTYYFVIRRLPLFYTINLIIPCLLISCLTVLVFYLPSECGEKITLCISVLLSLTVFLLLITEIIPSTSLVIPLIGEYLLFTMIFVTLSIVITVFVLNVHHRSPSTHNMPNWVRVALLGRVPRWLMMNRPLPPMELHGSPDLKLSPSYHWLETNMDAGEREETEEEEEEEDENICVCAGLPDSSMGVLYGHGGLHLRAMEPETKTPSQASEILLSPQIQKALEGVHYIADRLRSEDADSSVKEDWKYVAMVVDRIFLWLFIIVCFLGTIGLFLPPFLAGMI

1. C[N+](C)(C)CCO [2-hydroxy-N,N,N-trimethylethanaminium]; < 5.00
2. CCN1CC2(COC(=O)c3ccccc3-n3c(O)cc(C)c3O)CCC(OC)C34C5CC6C(OC)CC(O)(C5C6OC)C(O)(C(OC)C23)C14 (stereo not drawn) [CAS_21019-30-7]; < 5.00

# ---- query compound ----
Form entry - test system: Neuronal acetylcholine receptor subunit alpha-2 (Rattus norvegicus, UniProt P12389); read-out: pKi; compound: CNC1(C)C2CCC(C2)C1(C)C (stereo not drawn)
< 5.00
